experimentNotes: physchem
measurementSetup: buffer, pH 7.4
What logD was measured for each of the following?
Give only the figure.

GET /values?readout=logD&item= C[C@H]1CN(c2ccc(Nc3cc(-c4cc(F)cc(N5CCn6c(cc7c6CCCC7)C5=O)c4CO)cn(C)c3=O)nc2)CCN1C
2.3

What value of logD has been reported for the following compound? C[C@H]1CN(C)CCN1c1ccc(Nc2cc(-c3cc(F)cc(N4CCn5c(cc6c5CCCC6)C4=O)c3CO)cn(C)c2=O)nc1
3.2

Return reported logD; argument: C[C@H]1CN(C2COC2)CCN1c1ccc(Nc2cc(-c3ccnc(N4CCn5c(cc6c5CC(C)(C)C6)C4=O)c3CO)nn(C)c2=O)nc1
3.7

What value of measured logD is listed for C[C@@H]1CN(c2ccc(Nc3cc(-c4cc(F)cc(N5CCn6c(cc7c6CCCC7)C5=O)c4CO)cn(C)c3=O)nc2)CCN1C ?
3.3

What measured logD goes with Cn1cc(-c2nccc(N3CCn4c(cc5c4CCCC5)C3=O)c2CO)cc(Nc2ccc(N3CCN(C4COC4)CC3)cn2)c1=O ?
1.8

Quick one: logD for COCCN1CCN(c2ccc(Nc3cc(-c4ccnc(N5CCn6c(cc7c6CC(C)(C)C7)C5=O)c4CO)cn(C)c3=O)nc2)CC1 ?
3.2

###

Assign inhibition at 1 µM to each entry below.
subjectOfTest: BLK (Homo sapiens, UniProt P51451)
Sequence (P51451 whole entry): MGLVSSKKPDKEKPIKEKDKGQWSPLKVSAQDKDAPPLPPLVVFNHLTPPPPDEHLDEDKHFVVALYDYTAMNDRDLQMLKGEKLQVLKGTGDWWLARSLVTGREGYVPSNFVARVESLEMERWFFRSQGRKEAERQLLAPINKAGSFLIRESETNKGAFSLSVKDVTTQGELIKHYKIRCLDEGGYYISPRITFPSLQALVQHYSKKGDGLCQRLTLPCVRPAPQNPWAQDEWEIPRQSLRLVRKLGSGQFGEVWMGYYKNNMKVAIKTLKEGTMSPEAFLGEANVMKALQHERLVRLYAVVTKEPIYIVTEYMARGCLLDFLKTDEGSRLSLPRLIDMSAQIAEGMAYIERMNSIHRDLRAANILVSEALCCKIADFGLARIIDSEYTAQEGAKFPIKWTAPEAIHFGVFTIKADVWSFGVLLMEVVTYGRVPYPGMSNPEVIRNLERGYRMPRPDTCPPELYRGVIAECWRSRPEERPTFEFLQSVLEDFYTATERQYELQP
experimentNotes: Inhibition of recombinant human full length His-tagged BLK expressed in baculovirus at 1 uM by Z'-LYTE assay
Kindly provide the numeric value in % only, without the unit symbol.

Notebook entry, BLK (Homo sapiens, UniProt P51451) assay: inhibition at 1 µM of C=CC(=O)Nc1cccc(Nc2nc(Nc3ccc(OCCOC)cc3)ncc2F)c1 [SPEBRUTINIB] = ?
44

Lab request: please report inhibition at 1 µM under test system BLK (Homo sapiens, UniProt P51451) for CC#CC(=O)N1CC[C@@H](n2c(=O)n(-c3ccc(Oc4ccccc4)cc3)c3c(N)ncnc32)C1 [TIRABRUTINIB]
47

For the record C[C@H]1CN(C2COC2)CCN1c1ccc(Nc2cc(-c3ccnc(N4CCn5c(cc6c5CC(C)(C)C6)C4=O)c3CO)cn(C)c2=O)nc1 [FENEBRUTINIB] , what value of inhibition at 1 µM is listed for BLK (Homo sapiens, UniProt P51451)?
6

###

experimentNotes: Oral bioavailability in rat at 1 mg/kg administered as single dose via cassette dosing
Type: ADME, organism-based
measurementSetup: in vivo
measurementType: bioavailability (%)
API: value field is a number in %; no unit string.

Form field: reported bioavailability of C[C@H]1CN(C2COC2)CCN1c1ccc(Nc2cc(-c3ccnc(N4CCn5c(cc6c5CC(C)(C)C6)C4=O)c3CO)cn(C)c2=O)nc1 [FENEBRUTINIB]
65.1

###

Provide the reported CLhep predicted at 1 µM of each item.
experimentNotes: Clearance in human hepatocytes at 1 uM incubated up to 60 mins by LC-MS/MS method
Type: ADME, cell-based, Hepatocyte
In your response, the unit should come after the numeric value.

Item C[C@H]1CN(C2COC2)CCN1c1ccc(Nc2cc(-c3ccnc(N4CCn5c(cc6c5CC(C)(C)C6)C4=O)c3CO)nn(C)c2=O)nc1 has what recorded CLhep predicted at 1 µM?
13 mL/min/kg

Consider the compound shown here: CC[C@H]1CN(C2COC2)CCN1c1ccc(Nc2cc(-c3ccnc(N4CCn5c(cc6c5CC(C)(C)C6)C4=O)c3CO)cn(C)c2=O)nc1 What is its recorded CLhep predicted at 1 µM?
16 mL/min/kg

For the compound shown here, C[C@H]1CN(C2COC2)CCN1c1cnc(Nc2cc(-c3ccnc(N4CCn5c(cc6c5CC(C)(C)C6)C4=O)c3CO)cn(C)c2=O)cn1 , give the reported CLhep predicted at 1 µM.
10 mL/min/kg

// lookup CLhep predicted at 1 µM for C[C@@H]1CN(c2ccc(Nc3cc(-c4ccnc(N5CCn6c(cc7c6CC(C)(C)C7)C5=O)c4CO)cn(C)c3=O)nc2)[C@@H](C)CN1C1COC1
12 mL/min/kg

// lookup CLhep predicted at 1 µM for C[C@@H]1CN(C2COC2)CCN1c1ccc(Nc2cc(-c3ccnc(N4CCn5c(cc6c5CC(C)(C)C6)C4=O)c3CO)cn(C)c2=O)nc1
14 mL/min/kg

Endpoint output: CLhep predicted at 1 µM of C[C@H]1CN(C2COC2)CCN1c1ccc(Nc2cc(-c3ccnc(N4CCn5c(cc6c5CC(C)(C)C6)C4=O)c3CO)cn(C)c2=O)nc1 . Value?
7.6 mL/min/kg

// data source = ChEMBL document CHEMBL4020831
